biological target: PPARγ ligand binding domain (LBD) (amino acids 195-475) (Homo sapiens); construct: polyHis; made in house; host or cells: Escherichia coli; assay: PPAR-γ binding assay (spin plate / gel filtration binding assay, displacement of [3H]BRL 49653); settings: read-out: IC50 range in the PPAR-γ Binding Assay
Sequence (P37231 223-503, species assumed): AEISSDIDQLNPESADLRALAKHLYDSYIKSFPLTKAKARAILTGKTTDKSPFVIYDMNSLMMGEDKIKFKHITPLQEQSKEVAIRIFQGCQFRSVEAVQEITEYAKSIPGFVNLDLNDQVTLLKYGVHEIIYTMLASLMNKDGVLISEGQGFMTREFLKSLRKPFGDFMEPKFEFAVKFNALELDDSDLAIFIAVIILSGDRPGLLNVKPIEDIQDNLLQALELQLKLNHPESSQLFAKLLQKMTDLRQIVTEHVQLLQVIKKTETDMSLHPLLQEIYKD
pIC50: −log10 of the molar value.
parameterMeasured: pIC50

- CC(=O)c1cccc(-c2c(C(=O)O)n(Cc3cccc(OCC4CC4)c3)c3ccccc23)c1: 8.00 to 10.00
- O=C(O)c1c(C2=NC3(CCCC3)CO2)c2ccccc2n1Cc1cccc(C(F)(F)F)c1: 5.00 to 8.00
- COc1cccc(Cn2c(C(=O)O)c(-c3ccc(OCC4CC4)cc3)c3cc(OCc4ccc(C(F)(F)F)cc4)ccc32)c1: 5.00 to 8.00
- O=C(O)c1c(-c2cc3ccccc3o2)c2ccccc2n1Cc1cccc(C(F)(F)F)c1: 8.00 to 10.00
- O=C(O)c1c(-c2cccc(OCC3CC3)c2)c2ccccc2n1Cc1cccc(OC(F)(F)F)c1: 8.00 to 10.00
